- System: PC-3 cells
- ASSAY_SUMMARY: Anti-proliferative MTT assay
- Assay type: cell-based
- APPLIED_CONDITIONS: Homo sapiens, 96 h incubation, mean of three experiments
The reader will find reported GI50 values listed item by item below.
The figure you give is taken to be in µM; do not add the unit.

Give its GI50 value. Item: Nc1ccccc1NC(=O)c1ccc(CNc2ccc3ncnc(Nc4ccc(F)cc4)c3n2)cc1 [Compound A04]
8

Give its GI50 value. Item: O=C(CCCCCCC(=O)Nc1ccccc1)NO [Vorinostat, reference compound]
1.7

Give its GI50 value. Item: CNC(=O)c1cc(F)ccc1Nc1ncnc2ccc(NCCCCCCC(=O)NO)nc12 [Compound A16]
4.38

Source listed as paper PMC7571151.
